# Test system: HT-1080
# TEST_PROTOCOL: Cytotoxicity against Homo sapiens (human) HT1080 cells after 48 hr by MTT assay
# Assay type: functional, cell-based
# CONDITION_DESCRIPTION: HT-1080, 48 h
Quick list: IC50 per entry.

SMI: Cc1c(Cl)cccc1NC(=O)NCCO[C@H]1O[C@@H]2O[C@@]3(C)CC[C@H]4[C@H](C)CC[C@@H]([C@H]1C)[C@@]24OO3
TGT: HT-1080
IC50: > 100 µM
//
SMI: Cc1ccc(C)c(NC(=O)NCCO[C@H]2O[C@@H]3O[C@@]4(C)CC[C@H]5[C@H](C)CC[C@@H]([C@H]2C)[C@@]35OO4)c1
TGT: HT-1080
IC50: > 100 µM

# next compound below
**Query** Param item = "C[C@H]1[C@H](OCCNC(=O)Nc2ccc([N+](=O)[O-])cc2)O[C@@H]2O[C@@]3(C)CC[C@H]4[C@H](C)CC[C@@H]1[C@@]24OO3" ; retrieve measured IC50.
**Result** > 100 µM
